- test.method.notes: small-molecule microarray binders of probe aNog, primary screen, biochemical, biotinylated probe, 635/667 nm fluorescence (AID 1115);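 also: probe is biotinylated aNog protein used at 0.15 µg/mL for 1 h at 4 C; z-score combines 667 nm fluorescence of each spot with its signal to noise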
- test.conditions: higher = more signal

| item.smiles | composite z-score |
| --- | --- |
| C=C(COC)/C(=C/C[C@H](OC(C)=O)c1cccc(OCCO)c1)c1cnc2ccccc2c1 | 0.353 |
| C=C(/C(=C/C[C@H](OC(=O)c1ccncc1)c1ccccc1OCCO)c1cnc2ccccc2c1)C(C)C | -0.0809 |
| [N-]=[N+]=NCc1ccccc1[C@@H]1OC(c2ccc(OCCCO)cc2)=N[C@]1(Cc1ccccc1)C(=O)NCCN1CCOCC1 | 0.684 |
| C=CCNC(=O)[C@H]1[C@@H]2C(=O)O[C@@H](c3ccccc3)[C@@H](c3ccccc3)N2[C@@H](c2ccc(OCCO)cc2)[C@]12C(=O)Nc1ccc(C#CCNC(N)=O)cc12 | 0.85 |

====

- test.method.notes: E. coli acrAB mutant growth effects, primary screen, E. coli filamentation inducers, strain DRC39, OD650, 24 h (AID 1178);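 also: growth measured as culture turbidity by optical density at 650 nm; test concentration not given here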
- test.conditions: higher = more signal, called active from +8 up or from −8 down
Listing: z-score of selected compounds
recorded.endpoint: z-score

| item.smiles | result |
| --- | --- |
| Cc1ccc(S[C@]2(C(=O)NCC(C)C)CC(=O)N(C3Cc4ccccc4C3)[C@@H]2c2ccc(CO)cc2I)cc1 | -0.0452 |
| C=C(COC)/C(=C/C[C@H](OC(C)=O)c1cccc(OCCO)c1)c1cnc2ccccc2c1 | -0.901 |
| COCCOC(=O)N1C(=O)[C@@]2(c3cc(C#CCC(C(=O)OC)C(=O)OC)ccc31)[C@H](C(=O)NC[C@H](O)c1ccccc1)[C@H]1C(=O)O[C@H](c3ccccc3)[C@H](c3ccccc3)N1[C@@H]2c1ccc(O)cc1 | 0.35 |

====

In this section, each of the molecules is paired with its reported composite z-score.
- System: Lefty1
- test.method.notes: Lefty1 binders on small-molecule microarrays, primary screen, biochemical, small-molecule microarray, 635/667 nm fluorescence (AID 1139)
- test.conditions: small-molecule microarray binding, fluorescence 635/667; higher = more signal

| molecule | assayed.target | composite z-score |
| --- | --- | --- |
| COc1ccc(CCNC(=O)[C@@]2(Cc3ccccc3I)c3ccccc3C(=O)N(Cc3ccccc3Cl)[C@H]2c2ccc(CO)cc2)cc1 | Lefty1 | -0.321 |
| O=C1OCCC=C[C@H]2OC34C=CCN(c5ccc(Cl)cc5)C(=O)[C@H]3N(CCCCCCO)C(=O)[C@@H]4C12 (stereo partly drawn) | Lefty1 | -0.831 |
| O=C1O[C@H](c2ccccc2)[C@H](c2ccccc2)N2[C@H]1[C@@H](C(=O)N1CCCCCCC1)[C@]1(C(=O)Nc3ccc(C#CC4(O)CCCCCC4)cc31)[C@H]2c1ccc(O)cc1 | Lefty1 | 1.27 |

====

- assayed.target: NADPH oxidase 5 (Homo sapiens)
- test.method.notes: NOX5-dependent H2O2 signal modulators, primary screen, NOX inhibitor project, cell-based, HEK293-NOX5, Amplex Red fluorescence (AID 1161)
- test.conditions: HEK293-NOX5, ionomycin, 45 min, higher = more signal
Label f if z-score falls below 0.2; label t in every other case.

| molecule | assigned.label |
| --- | --- |
| CC(CO)N1C(=O)[C@@H]2[C@H]3C(=O)OCC=C[C@H]3OC23C=CCN(c2ccc(Cl)cc2)C(=O)[C@@H]13 (stereo not given in full) | t |
| COCCOC(=O)N1C(=O)[C@@]2(c3cc(C#CCNC(N)=O)ccc31)[C@H](c1ccc(OCCO)cc1)N1[C@H](c3ccccc3)[C@H](c3ccccc3)OC(=O)[C@H]1[C@@H]2C(N)=O | t |
| C=C(/C(=C/C[C@@H](OC(C)=O)c1ccc(CO)o1)c1cc(C(=O)OC)ccc1OC)C(C)C | f |
| CCCCCN1CC=CC23O[C@@H]4C=CCOC(=O)[C@@H]4[C@H]2C(=O)N(CCO)[C@@H]3C1=O (stereo not given in full) | t |
| COCCOC(=O)N1C(=O)[C@@]2(c3cc(C#CC4(O)CCCCCC4)ccc31)[C@H](C(=O)N1CCN(c3ncccn3)CC1)[C@H]1C(=O)O[C@H](c3ccccc3)[C@H](c3ccccc3)N1[C@@H]2c1ccccc1OCCO | t |
| CCCCNC(=O)c1ccc(C#C[Si](C(C)C)(C(C)C)C(C)C)c(OC(C)=O)c1 | t |
| C=C(C(=O)CC[C@@H](OC(=O)c1ccccc1-c1ccccc1C(=O)O)c1ccccc1OCCO)C(C)C | f |
| CCOC(=O)C[C@H]1[C@H](OC(=O)c2ccccc2-c2ccccc2)[C@@H](NC(=O)c2ccccc2)c2cc(OCCCO)ccc2N1C(=O)c1ccccc1 | t |
| COc1ccc(C(O)C2C=CC3C(=O)N(c4ccccc4)C(=O)C3N2Nc2ccc(C(C)C)cc2)c2ccccc12 (stereo not given) | f |
| COCCOC(=O)N1C(=O)[C@@]2(c3ccccc31)[C@H](c1ccccc1OCCO)N1[C@H](c3ccccc3)[C@H](c3ccccc3)OC(=O)[C@H]1[C@@H]2C(N)=O | t |
| CCN(CC)c1ccc(N2CC=CC34O[C@@H]5C=CCCOC(=O)C5[C@H]3C(=O)N(CCO)[C@@H]4C2=O)cc1 (stereo not given in full) | t |
| C=C(CCCC)C(=O)CC[C@H](OC(C)=O)c1ccc(OCCO)cc1 | f |
| Cc1ccccc1C(O)C1C=CC2C(=O)N(c3ccccc3)C(=O)C2N1Nc1ccc([N+](=O)[O-])cc1 (stereo not given) | f |
| C=CCC(OC(C)=O)[C@@H]1[C@@H](N(Cc2ccc(-c3cccc(C(F)(F)F)c3)o2)C(=O)c2ccc(C)cc2)c2cc(OCCCO)ccc2N1C(=O)Cc1ccc(OC)cc1 (stereo not given in full) | t |
| CCCCCCCCCCC(O)C1C=CC2C(=O)N(C)C(=O)C2N1Nc1cc(OC)c(OC)c(OC)c1 (stereo not given) | f |
| O=c1cccc(-c2ccc(F)cc2)o1 | f |
| C[C@]1(C(=O)NCCN2CCOCC2)c2ccccc2C(=O)N(Cc2cc(F)cc(C(F)(F)F)c2)[C@H]1c1ccc(CO)cc1 | f |
| CC(C)[Si]1(C(C)C)OCc2cc(-c3ccc(-c4ccc(Cl)c(Cl)c4)o3)nc(CCc3ccccc3)c21 | f |
| C=CCN1C(=O)[C@]2(O[C@H](CCO)[C@@H]([Si](C)(C)c3ccc(OC)cc3)[C@@H]2C)c2cc(N3C(=O)COc4ccccc43)ccc21 | f |
| C=C(COC)C(=O)CC[C@H](OC(=O)c1cccnc1)c1ccc(CO)o1 | t |
| CC(C)C(=C=CC[C@H](O)c1cccc(OCCO)c1)CCO | f |
| Cc1ccc(S[C@]2(C(=O)NCC(C)C)CC(=O)N(C3Cc4ccccc4C3)[C@@H]2c2ccc(CO)cc2I)cc1 | t |
| O=C1C2C=CC(C(O)c3ccc4c(c3)OCO4)N(Nc3ccccc3)C2C(=O)N1c1ccccc1 (stereo not given) | f |
| C=C(CCCC)C(=O)CC[C@@H](OC(=O)c1cccnc1)c1ccc(OCCO)cc1 | f |
| CO[C@H]1O[C@H](CO)[C@@H](OC(=O)CCc2ccccc2)[C@H](OC(=O)c2cc3ccccc3[nH]2)[C@H]1OC(=O)c1cc2ccccc2[nH]1 | t |
| COc1ccc([Si](C)(C)[C@H]2[C@H](CCO)O[C@@]3(C(=O)N(Cc4ccccc4)c4ccc(N5CCOC5=O)cc43)[C@@H]2C)cc1 | t |
| COC(=O)[C@@]1(Cc2ccc(OC)cc2)[C@H]2c3cc(C(=O)N4CCCC4)n(Cc4cc(C)n(C)n4)c3C[C@H]2CN1C(=O)c1ccccc1 | f |
| COCCOC(=O)N1C(=O)[C@@]2(c3cc(C#CCNC(N)=O)ccc31)[C@H](c1ccc(O)cc1)N1[C@H](c3ccccc3)[C@H](c3ccccc3)OC(=O)[C@H]1[C@@H]2C(N)=O | t |
| COc1ccc([Si](C)(C)[C@H]2[C@H](CCO)O[C@@]3(C(=O)N(Cc4ccc(N5C(=O)c6ccccc6Oc6ccccc65)cc4)c4ccccc43)[C@@H]2C)cc1 | t |
| CCc1cccc(NC(=O)O[C@H]2[C@H](OC(=O)Nc3ccccc3)[C@H](OC(=O)Nc3ccccc3)[C@@H](OC)O[C@@H]2CO)c1 | f |

Ref: PubChem BioAssay
